Values were extracted from ChEMBL document CHEMBL1201862.

Recorded measurements of GI50, one per entry
- Tested on: 786-0
- Protocol Text: NCI tumour cell line growth inhibition, 48 h
Activity calls are given as the source filed them. No stated cut-off is given here; in the data, active = GI50 up to about 1.1 µM and inactive = higher.
Observation Type: GI50

                                    molecule  target_of_assay             reported
 0  O=[N+]([O-])c1ccc(S[C@@H]2[C@H]3c4c(-c5ccccc5)[nH]c(-c5ccccc5)c4[C@@H]2C[C@H]3Cl)cc1            786-0   2.62 µM (inactive)
 1  CC(=O)/C(=C/n1ccc(=O)[nH]c1=S)C(=O)Nc1ccccc1C            786-0  > 100 µM (inactive)
 2  Cc1cc2[nH]c3c(C#N)c(-c4ccccc4)c(/N=N/c4cccc(C(F)(F)F)c4)c(=O)n3c2cc1C            786-0   35.8 µM (inactive)
 3  CCCCC(/C=N/NC(=N)N)CC.Cc1cc(O)c(C(C)C)cc1S(=O)(=O)O            786-0  > 100 µM (inactive)
 4           CN(/N=C/c1ccc(Cl)cc1)C1=NCCCCN1            786-0   99.8 µM (inactive)
 5           CN(C)CCS/C(=N\c1ccccc1)N1CCCCC1            786-0   16.3 µM (inactive)
 6  CN(/N=C/c1cccs1)c1ccc([N+](=O)[O-])cc1[N+](=O)[O-]            786-0  > 100 µM (inactive)
 7  O=C(N/N=C/C=C/c1ccc([N+](=O)[O-])o1)c1ccc(C(=O)N/N=C/C=C/c2ccc([N+](=O)[O-])o2)cc1            786-0   20.1 µM (inactive)
 8                    Cc1cc2c3c(c1)CCCN3CCC2            786-0   > 10 µM (inactive)
 9  CSc1cc(C(C)(C)C)ccc1C(O)c1ccc(C(C)(C)C)cc1SC            786-0   10.8 µM (inactive)
10  C[n+]1cc2cc(O)c(O)cc2c2ccc3cc(O)c(O)cc3c21.c1ccncc1            786-0   2.03 µM (inactive)
11      CC(=O)NNC(=S)N/C=C1/C(=O)C=C(C)OC1=O            786-0  > 100 µM (inactive)
12               O=C(/C=C/c1cccs1)c1ccccc1Cl            786-0   14.1 µM (inactive)
13  O=C(NCCO)Nc1c(C(F)(F)F)cc(-c2ccccc2)[nH]c1=O            786-0  > 100 µM (inactive)
14  O=C(O)C1=C(O)C(C(=O)O)C23CCCCCCCCCCC12C(C(=O)O)C(O)=C3C(=O)O (stereo unspecified)            786-0  > 100 µM (inactive)
15  CC(=O)N(CCc1ccccc1)C(C)(C#N)c1ccccc1 (stereo unspecified)            786-0  > 100 µM (inactive)
16  Cn1c(=O)c2c(nc3n2CC(C(=O)O)N3)n(C)c1=O (stereo unspecified)            786-0  > 100 µM (inactive)
17  CC(=O)OCCOCn1c2ccccc2c2c3c(c4c5ccccc5n(COCCOC(C)=O)c4c21)C(=O)N(Cc1ccccc1)C3=O            786-0  > 100 µM (inactive)
18  CCOP(=O)(OCC)C(C)(CC)NC (stereo unspecified)            786-0  > 100 µM (inactive)
19  C[C@H]1[C@@H](c2ccccc2)O[B-](c2ccccc2)(c2ccccc2)[N+]1(C)C            786-0   78.2 µM (inactive)
20  O=C1c2c(c3c4ccccc4n4c3c3c2c2ccccc2n3C/C=C\C4)C(=O)N1Cc1ccccc1            786-0  > 100 µM (inactive)
